assay: Selectivity index, ratio of IC50 for african green monkey (Cercopithecus aethiops) Vero cells to IC50 for chloroquine-sensitive Plasmodium falciparum D6; format: toxicity, cell-based; settings: read-out: Ratio IC50
Measurement label: selectivity ratio

Go through the items and report each one's selectivity ratio.
1. O[C@]12C=C(c3nccc4c3[nH]c3ccccc34)[C@@H]3CCN(CCCC/C=C\CC1)C[C@@]31C[C@@H]3/C=C\CCCCN3[C@H]12 [MANZAMINE A]
2. C[C@@H]1CC[C@H]2[C@@H](C)C(=O)O[C@@H]3O[C@@]4(C)CC[C@@H]1[C@]32OO4 [ARTEMISININ]
3. C[n+]1ccc2c([nH]c3ccccc32)c1C1=C[C@@]2(O)CC/C=C\CCCCN3CCC1[C@]1(C[C@@H]4/C=C\CCCCN4[C@H]12)C3.O=S(=O)([O-])C(F)(F)F (stereo partly drawn)

**Result**
1: 29.4; 2: > 2700; 3: > 24

Numbers sourced from ChEMBL document CHEMBL1155126.
